# system tested: Carbonic anhydrase 9 (Homo sapiens, UniProt Q16790)
# assay: Inhibition of recombinant human CA9 expressed in Escherichia coli BL21 preincubated for 15 mins by phenol red dye-based stopped-flow CO2 hydration assay
Hi there, I'd appreciate the recorded pKi for every entry that follows.
Numbers only, as −log10 of the molar value.

Batch: pKi for all items listed.
1. CC(C)(C)C(=O)Nc1nnc(S(N)(=O)=O)s1
2. CC(C)C(=O)Nc1nnc(S(N)(=O)=O)s1

Result string:
[8.09, 8.62]

Batch: pKi for all items listed.
1. CCCC(=O)Nc1nnc(S(N)(=O)=O)s1
2. NS(=O)(=O)c1nnc(NC(=O)C2CCCCC2)s1
3. CCC(=O)Nc1nnc(S(N)(=O)=O)s1 [PROPAZOLAMIDE]

Result string:
1. 8.68
2. 7.80
3. 7.89
